Biological target: Factor D (Homo sapiens (Human))
Sequence (P00746 26-253): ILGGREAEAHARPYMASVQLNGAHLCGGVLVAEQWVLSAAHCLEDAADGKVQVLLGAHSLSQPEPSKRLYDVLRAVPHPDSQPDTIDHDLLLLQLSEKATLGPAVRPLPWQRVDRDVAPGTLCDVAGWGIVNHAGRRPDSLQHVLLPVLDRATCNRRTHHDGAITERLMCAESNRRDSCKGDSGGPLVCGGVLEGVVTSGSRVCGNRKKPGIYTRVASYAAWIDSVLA
Experiment: biochemical
Type: biochemical
Conditions: read-out: IC50
Measured pIC50 of individual entries
# pIC50 is unitless: minus log10 of the molar concentration; print number only

{"compound_structure_string": "CC(=O)c1cn(CC(=O)N2[C@@H]3C[C@@H]3C[C@H]2C(=O)Nc2cccc(Br)n2)c2ncccc12", "reported_endpoint": "pIC50", "test_value": 7.47}
{"compound_structure_string": "CC(=O)c1cn(CC(=O)N2[C@@H]3C[C@@H]3C[C@H]2C(=O)NCc2cccc(Cl)c2F)c2ccc(O)cc12", "reported_endpoint": "pIC50", "test_value": 7.22}
{"compound_structure_string": "NCc1ccc(-c2cccc(NC(=O)[C@@H]3CCCN3C(=O)Nc3cn(C(N)=O)c4ccccc34)c2)cc1", "reported_endpoint": "pIC50", "test_value": 5.40}
{"compound_structure_string": "NC(=O)n1cc(NC(=O)N2C[C@@H](N)C[C@H]2C(=O)NCc2cccc(-n3cccc3)c2)c2ccccc21", "reported_endpoint": "pIC50", "test_value": 4.95}

Give the reported pIC50 for CO[C@H]1[C@@H](C(=O)Nc2cccc(Br)n2)N(C(=O)Cn2nc(C(C)=O)c3ccccc32)C[C@@H]1F (system: Factor D (Homo sapiens (Human))).
8.15

Give the reported pIC50 for NC(=O)n1cc(CC(=O)N2[C@H](C(=O)NCc3cccc(Cl)c3F)C[C@@]3(CO)C[C@@H]23)c2ccccc21 (system: Factor D (Homo sapiens (Human))).
7.33

Give the reported pIC50 for CC(=O)c1cn(CC(=O)N2[C@@H]3C[C@@H]3C[C@H]2C(=O)Nc2cccc(OC(F)(F)F)c2F)c2ncccc12 (system: Factor D (Homo sapiens (Human))).
6.09

Give the reported pIC50 for CC(=O)c1cn(CC(=O)N2C[C@@H]3C[C@@H]3[C@H]2C(=O)NCc2cccc(Cl)c2F)c2cnccc12 (system: Factor D (Homo sapiens (Human))).
5.95

Give the reported pIC50 for C[C@@H](NC(=O)[C@@H]1C[C@H]2C[C@H]2N1C(=O)Cn1nc(C(N)=O)c2cc[n+]([O-])cc21)c1cccc(Cl)c1F (system: Factor D (Homo sapiens (Human))).
7.35

Give the reported pIC50 for Cc1cc2c(cn1)c(C(N)=O)nn2CC(=O)N1[C@@H]2C[C@@H]2C[C@H]1C(=O)NCc1cccc(Cl)c1F (system: Factor D (Homo sapiens (Human))).
7.33

Give the reported pIC50 for CC(=O)c1cn(CC(=O)N2C[C@](C)(F)C[C@H]2C(=O)NCc2cccc(Cl)c2F)c2cc(O)ccc12 (system: Factor D (Homo sapiens (Human))).
6.87

Give the reported pIC50 for CC(=O)c1cn(CC(=O)N2[C@@H]3C[C@@H]3C[C@H]2C(=O)NCc2cccc(Cl)c2F)c2ncncc12 (system: Factor D (Homo sapiens (Human))).
6.36

Give the reported pIC50 for NC(=O)n1cc(NC(=O)N2C[C@@H](N)C[C@H]2C(=O)NCc2cccc(Oc3ccccc3)c2)c2ccccc21 (system: Factor D (Homo sapiens (Human))).
5.20

Give the reported pIC50 for CC(=O)n1cc(NC(=O)N2[C@H](C(=O)NCc3cccc(Cl)c3F)C[C@@]3(CO)C[C@@H]23)c2ccccc21 (system: Factor D (Homo sapiens (Human))).
7.52

Give the reported pIC50 for CC(C)(C)c1cc(NC(=O)[C@@H]2C[C@@H](F)CN2C(=O)Nc2cn(C(N)=O)c3ccccc23)ccn1 (system: Factor D (Homo sapiens (Human))).
5.55

Give the reported pIC50 for NC(=O)n1cc(NC(=O)N2C[C@@](O)(CO)C[C@H]2C(=O)NCc2cccc(Cl)c2F)c2ccccc21 (system: Factor D (Homo sapiens (Human))).
6.15

Give the reported pIC50 for COc1ccc2c(C(N)=O)cn(CC(=O)N3C[C@H](F)C[C@H]3C(=O)NCc3cccc(Cl)c3F)c2c1 (system: Factor D (Homo sapiens (Human))).
7.44

Give the reported pIC50 for NC(=O)n1cc(NC(=O)N2C[C@H](F)C[C@H]2C(=O)Nc2ccncc2F)c2ccccc21 (system: Factor D (Homo sapiens (Human))).
6.04

Give the reported pIC50 for CN(C)CCN(C)c1cc(Cl)c(F)c(CNC(=O)[C@@H]2C[C@@H](F)CN2C(=O)Nc2cn(C(N)=O)c3ccccc23)c1 (system: Factor D (Homo sapiens (Human))).
6.74

Give the reported pIC50 for NC(=O)n1cc(NC(=O)N2C[C@H](F)C[C@H]2CNS(=O)(=O)c2cccc(Cl)c2F)c2ccccc21 (system: Factor D (Homo sapiens (Human))).
7.70

// provenance: patent US9085555B2
